# Tested on: HCV replicon cells
# TEST_METHOD_NOTES: Cell-based HCV replicon assay (replicon RNA level by real time PCR, Taqman)
# APPLIED_CONDITIONS: Hepatitis C virus, 72 h, HCV replicon cells, harvested day 3, replicon RNA by real time PCR; given as number; read-out: EC90 (μM) range
MEASURED_METRIC: log10 EC90 (log10 of the value in µM)
Scale: decimal log of EC90, EC90 in µM.

| MOLECULE | MEASURED_METRIC | EXPERIMENTAL_RESULT |
| --- | --- | --- |
| CCOc1cc2cc(-c3c(C)nc(NC(C)(C)CC)nc3N[C@@H]3C[C@H](CO)[C@@H](O)[C@H]3O)oc2c(C)n1 [Example 26] | log10 EC90 | -0.30 |
| CCOc1cc2cc(-c3c(C)nc(NCc4c(F)cccc4F)nc3N[C@@H]3C[C@H](CO)[C@@H](O)[C@H]3O)oc2c(C)n1 [Example 50] | log10 EC90 | -1.30 |
| Cc1nc(NCC2CC2)nc(N[C@@H]2C[C@H](CO)[C@@H](O)[C@H]2O)c1-c1cc2cc(OC(C)C)nc(C)c2o1 [Example 39] | log10 EC90 | -1.00 |
| CNC(=O)OC[C@H]1C[C@@H](Nc2nc(NCC(F)(F)F)nc(C)c2-c2nc3ccccc3s2)[C@H](O)[C@@H]1O [Example 66] | log10 EC90 | -0.07 |
| CCOc1cc2cc(-c3c(C)nc(NCC4CC4)nc3N[C@@H]3C[C@H](CO)[C@@H](O)[C@H]3O)oc2c(C)n1 [Example 30] | log10 EC90 | -0.85 |

Request: Quick check: log10 EC90 of CCOc1cc2cc(-c3c(C)nc(NCC(C)(C)C)nc3N[C@@H]3C[C@H](CO)[C@@H](O)[C@H]3O)oc2c(C)n1 [Example 27] ?
Result: -0.46
